# Lookup of reported Ki keyed by entry
# SYSTEM UNDER TEST: Recombinant Human Poly(ADP-Ribose) Polymerase (PARP), PARP-1 (Homo sapiens (Human))
# CONDITION: read-out: PARP-1 (Ki); Table 1; text calls the values EC50s
PARAMETER MEASURED: Ki (nM)

                                   compound  parameter_measured  numeric_value
0  O=C(c1ccc2ccccc2n1)N1CCN(C(=O)c2cc(Cc3n[nH]c(=O)c4c3CCCC4)ccc2F)CC1 [Example 739]                  Ki            1.3
1  O=C1CC[C@H](C(=O)Nc2cccc(Cc3n[nH]c(=O)c4c3CCCC4)c2)N1 [Example 140]                  Ki             60
2  CN(C)C(=O)N1CCN(C(=O)c2cc(Cc3n[nH]c(=O)c4c3CCCC4)ccc2F)CC1 [Example 494]                  Ki            0.9
3  O=C(NCCc1cccnc1)c1cccc(Cc2n[nH]c(=O)c3c2CCCC3)c1 [Example 380]                  Ki             71
4  CCCOc1ccc(C(=O)Nc2cccc(Cc3n[nH]c(=O)c4c3CCCC4)c2)cc1 [Example 235]                  Ki            198
5  Cc1ccc(OCC(=O)Nc2cccc(CCc3n[nH]c(=O)c4c3CCCC4)c2)cc1 [Example 323]                  Ki            237
6  COc1cccc(CCNC(=O)c2cccc(Cc3n[nH]c(=O)c4c3CCCC4)c2)c1OC [Example 402]                  Ki             86
7  O=C(Cc1cccnc1)Nc1cccc(Cc2n[nH]c(=O)c3c2CCCC3)c1 [Example 216]                  Ki             82

###

# SYSTEM UNDER TEST: PARP in C41 cells (Homo sapiens (Human), UniProt P09874)
# Sequence (P09874 whole entry): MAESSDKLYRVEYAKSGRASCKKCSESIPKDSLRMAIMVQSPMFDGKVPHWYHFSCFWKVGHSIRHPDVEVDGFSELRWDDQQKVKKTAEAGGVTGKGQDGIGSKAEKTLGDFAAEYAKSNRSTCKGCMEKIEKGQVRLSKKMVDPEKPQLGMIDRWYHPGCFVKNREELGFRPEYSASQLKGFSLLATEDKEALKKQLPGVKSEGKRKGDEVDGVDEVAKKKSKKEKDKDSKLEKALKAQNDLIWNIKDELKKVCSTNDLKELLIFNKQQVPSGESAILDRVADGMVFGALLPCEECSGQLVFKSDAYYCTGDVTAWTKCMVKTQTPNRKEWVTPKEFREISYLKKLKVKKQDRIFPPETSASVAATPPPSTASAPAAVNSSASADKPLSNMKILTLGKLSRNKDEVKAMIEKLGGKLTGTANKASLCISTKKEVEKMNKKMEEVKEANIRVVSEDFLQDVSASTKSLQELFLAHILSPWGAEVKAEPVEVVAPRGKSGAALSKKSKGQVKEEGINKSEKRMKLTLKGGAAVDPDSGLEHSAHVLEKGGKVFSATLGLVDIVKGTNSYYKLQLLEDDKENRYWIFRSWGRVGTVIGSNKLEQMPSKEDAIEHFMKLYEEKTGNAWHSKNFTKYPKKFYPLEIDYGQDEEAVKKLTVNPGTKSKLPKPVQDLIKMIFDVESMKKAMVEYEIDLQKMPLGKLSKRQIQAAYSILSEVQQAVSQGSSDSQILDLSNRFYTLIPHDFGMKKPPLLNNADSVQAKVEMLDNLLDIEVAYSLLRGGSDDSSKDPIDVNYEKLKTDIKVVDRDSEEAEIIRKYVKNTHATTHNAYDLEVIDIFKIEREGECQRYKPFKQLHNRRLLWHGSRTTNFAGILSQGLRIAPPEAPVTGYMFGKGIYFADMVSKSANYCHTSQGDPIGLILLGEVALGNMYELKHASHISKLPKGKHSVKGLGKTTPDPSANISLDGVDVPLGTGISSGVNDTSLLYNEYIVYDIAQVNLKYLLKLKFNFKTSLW
# CONDITION: Table 3; C41 cells; ratio to comparator EC50
PARAMETER MEASURED: Cell EC50 ratio

In [3]: df
Out[3]:
                                   molecule  parameter_measured  numeric_value
0  O=C(c1cc(Cc2n[nH]c(=O)c3c2CCCC3)ccc1F)N1CCC(O)CC1 [drawing 47]     Cell EC50 ratio              2
1  CCN1CCN(C(=O)c2cc(Cc3n[nH]c(=O)c4c3CCCC4)ccc2F)CC1 [drawing 31]     Cell EC50 ratio            0.4
2  Cc1c(C(=O)Nc2cc(Cc3n[nH]c(=O)c4c3CCCC4)ccc2F)cnn1-c1ccccc1 [drawing 23]     Cell EC50 ratio           17.6
3  O=C(c1cc(Cc2n[nH]c(=O)c3c2CCCC3)ccc1F)N1CCN(c2ccccn2)CC1 [drawing 33]     Cell EC50 ratio            0.4
4  CN1CCN(CCNC(=O)c2cccc(Cc3n[nH]c(=O)c4c3CCCC4)c2)CC1 [drawing 54]     Cell EC50 ratio             31

###

# SYSTEM UNDER TEST: Recombinant Human Poly(ADP-Ribose) Polymerase (PARP), PARP-1 (Homo sapiens (Human), UniProt P09874)
# CONDITION: read-out: PARP-1 (Ki); Table 1; text calls the values EC50s
I'd appreciate it if you marked entries Criterion met when Ki is lower than 40 nM and Criterion not met when it is not.

>>> print(df.to_string())
                                   compound  assigned_category
0  O=C(NCCc1ccccn1)c1cccc(Cc2n[nH]c(=O)c3c2CCCC3)c1      Criterion met
1  Cc1ccc(OCC(=O)Nc2cccc(Cc3n[nH]c(=O)c4c3CCCC4)c2)cc1C      Criterion met
2  COc1ccccc1CCNC(=O)c1cccc(Cc2n[nH]c(=O)c3c2CCCC3)c1  Criterion not met
3  O=C(Nc1cccc(Cc2n[nH]c(=O)c3c2CCCC3)c1)c1ccno1      Criterion met
4  Cc1nc2cc(C(=O)N3CCN(C(=O)c4cc(Cc5n[nH]c(=O)c6c5NCCC6)ccc4F)CC3)ccc2[nH]1      Criterion met
5  O=C(NCC1CCCCN1)c1cccc(Cc2n[nH]c(=O)c3c2CCCC3)c1 (centres unmarked)  Criterion not met
6  O=C(c1cc(Cc2n[nH]c(=O)c3c2NCCC3)ccc1F)N1CCN(C(=O)c2cccnc2Cl)CC1      Criterion met
7  O=C(CCCc1cccs1)Nc1cccc(Cc2n[nH]c(=O)c3c2CCCC3)c1  Criterion not met

###

# SYSTEM UNDER TEST: Recombinant Human Poly(ADP-Ribose) Polymerase (PARP), PARP-1 (Homo sapiens (Human), UniProt P09874)
# CONDITION: read-out: PARP-1 (Ki); Table 1; text calls the values EC50s
pKi: −log10 of the molar value.
PARAMETER MEASURED: pKi

                                 smiles_str  parameter_measured  numeric_value
0  O=C(c1cccnc1)N1CCN(C(=O)c2cc(Cc3n[nH]c(=O)c4c3NCCC4)ccc2F)CC1                 pKi           8.82
1  O=C(c1ccccc1-c1cc(CCc2n[nH]c(=O)c3c2CCCC3)ccc1F)N1CCCC1                 pKi           6.20
2  O=C(Nc1cccc(Cc2n[nH]c(=O)c3c2CCCC3)c1)c1ccoc1                 pKi           7.21
3     O=c1[nH]nc(Cc2ccc(F)c(Br)c2)c2ncccc12                 pKi           5.49

###

# Lookup of reported Ki keyed by entry
# SYSTEM UNDER TEST: Recombinant Human Poly(ADP-Ribose) Polymerase (PARP), PARP-1 (Homo sapiens (Human))
# CONDITION: read-out: PARP-1 (Ki); Table 1; text calls the values EC50s
PARAMETER MEASURED: Ki (nM)

>>> df
                                   molecule  parameter_measured  numeric_value
0  O=C(CCC(=O)c1ccc(Oc2ccccc2)cc1)Nc1cccc(CCc2n[nH]c(=O)c3c2CCCC3)c1 [Example 321]                  Ki            223
1  CC(C)n1nnc2cc(C(=O)N3CCN(C(=O)c4cc(Cc5n[nH]c(=O)c6c5CCCC6)ccc4F)CC3)ccc21 [Example 728]                  Ki            1.8
2  O=C(NCCc1cccc(C(F)(F)F)c1)c1cccc(Cc2n[nH]c(=O)c3c2CCCC3)c1 [Example 394]                  Ki             22
3  O=C(c1cnc2ccccc2c1)N1CCN(C(=O)c2cc(Cc3n[nH]c(=O)c4c3NCCC4)ccc2F)CC1 [Example 657]                  Ki            0.8
4  O=C(Nc1ccc(N2CCCCC2)cc1)c1cccc(Cc2n[nH]c(=O)c3c2CCCC3)c1 [Example 362]                  Ki            185
5  O=C(Nc1ccc(N2CCOCC2)cc1)c1cccc(Cc2n[nH]c(=O)c3c2CCCC3)c1 [Example 363]                  Ki            132
6  O=C(c1ccc(-c2cc(Cc3n[nH]c(=O)c4c3CCCC4)ccc2F)cc1)N1CCCC1 [Example 251]                  Ki            446

###

# SYSTEM UNDER TEST: Recombinant Human Poly(ADP-Ribose) Polymerase (PARP), PARP-1 (Homo sapiens (Human))
# CONDITION: read-out: PARP-1 (Ki); Table 1; text calls the values EC50s
Label scheme for Ki: low-valued (below 5 nM), mid-valued (5 nM to below 40 nM), high-valued (40 nM or more)

                                  smiles_str                         system_under_test  assigned_category
 0  CCOc1ccccc1C(=O)Nc1cccc(Cc2n[nH]c(=O)c3c2CCCC3)c1  Recombinant Human Poly(ADP-Ribose) Polymerase (PARP), PARP-1 (Homo sapiens (Human))        high-valued
 1  CN(C)CCN(C)C(=O)c1cc(Cc2n[nH]c(=O)c3c2NCCC3)ccc1F  Recombinant Human Poly(ADP-Ribose) Polymerase (PARP), PARP-1 (Homo sapiens (Human))         mid-valued
 2  CC(=O)N1CCN(C(=O)c2cccc(Cc3n[nH]c(=O)c4c3CCCC4)c2)CC1  Recombinant Human Poly(ADP-Ribose) Polymerase (PARP), PARP-1 (Homo sapiens (Human))         low-valued
 3  O=C(c1cc(Cc2n[nH]c(=O)c3c2CCCC3)ccc1F)N1CCN(c2ncccn2)CC1  Recombinant Human Poly(ADP-Ribose) Polymerase (PARP), PARP-1 (Homo sapiens (Human))         low-valued
 4  O=C(NC1CCN(c2ccccn2)CC1)c1cc(Cc2n[nH]c(=O)c3c2NCCC3)ccc1F  Recombinant Human Poly(ADP-Ribose) Polymerase (PARP), PARP-1 (Homo sapiens (Human))         mid-valued
 5  O=C(c1cccc(Cc2n[nH]c(=O)c3c2CCCC3)c1)N1CCN(c2ccccc2F)CC1  Recombinant Human Poly(ADP-Ribose) Polymerase (PARP), PARP-1 (Homo sapiens (Human))         low-valued
 6  CC[C@H](C(=O)Nc1cccc(Cc2n[nH]c(=O)c3c2CCCC3)c1)c1ccccc1  Recombinant Human Poly(ADP-Ribose) Polymerase (PARP), PARP-1 (Homo sapiens (Human))        high-valued
 7  Cc1ccc(NC(=O)c2cccc(Cc3n[nH]c(=O)c4c3CCCC4)c2)c(F)c1  Recombinant Human Poly(ADP-Ribose) Polymerase (PARP), PARP-1 (Homo sapiens (Human))        high-valued
 8  O=C(Cc1cc(F)cc(F)c1)Nc1cccc(Cc2n[nH]c(=O)c3c2CCCC3)c1  Recombinant Human Poly(ADP-Ribose) Polymerase (PARP), PARP-1 (Homo sapiens (Human))         mid-valued
 9  CCN(CCNC(=O)OC(C)(C)C)C(=O)c1cc(Cc2n[nH]c(=O)c3c2CCCC3)ccc1F  Recombinant Human Poly(ADP-Ribose) Polymerase (PARP), PARP-1 (Homo sapiens (Human))         low-valued
10  Cc1ccc(C(=O)c2ccccc2C(=O)Nc2cccc(Cc3n[nH]c(=O)c4c3CCCC4)c2)cc1  Recombinant Human Poly(ADP-Ribose) Polymerase (PARP), PARP-1 (Homo sapiens (Human))        high-valued
11  O=C(COc1ccccc1)N1CCN(C(=O)c2cc(Cc3n[nH]c(=O)c4c3NCCC4)ccc2F)CC1  Recombinant Human Poly(ADP-Ribose) Polymerase (PARP), PARP-1 (Homo sapiens (Human))         low-valued
12  Cc1cc(NC(=O)c2cccc(Cc3n[nH]c(=O)c4c3CCCC4)c2)ccc1Br  Recombinant Human Poly(ADP-Ribose) Polymerase (PARP), PARP-1 (Homo sapiens (Human))        high-valued
13  O=C(c1cc(Cc2n[nH]c(=O)c3c2CCCC3)ccc1F)N1CCN(c2ccccc2F)CC1  Recombinant Human Poly(ADP-Ribose) Polymerase (PARP), PARP-1 (Homo sapiens (Human))         mid-valued
14  CCCC(=O)Nc1ccc(Cl)c(Cc2n[nH]c(=O)c3c2CCCC3)c1  Recombinant Human Poly(ADP-Ribose) Polymerase (PARP), PARP-1 (Homo sapiens (Human))        high-valued
